Test system: RPMI-8226 leukemia
METHOD: NCI-60 one-dose screen, 48 h
EXPERIMENTAL CONTEXT: 10 µM unless noted
Description: Growth inhibition of the RPMI-8226 human tumor cell line is measured as a screen for anti-cancer activity. Cells are grown in 96 well plates and exposed to the test compound for 48 hours. Compounds are tested at a single concentration, which is 10^-5 M for most compounds. The reported endpoint is percent growth (GI% or GIPRCNT), where numbers from 0 - 100% represent growth inhibition, and numbers from -100% - 0 represent cell death. For example, a value of 40 represents 60% growth inhibition. […]
About 83,000 compounds went through this panel and 20% of them were active in at least one assay; those are over-represented in the sample as a whole. The source made the active and inactive calls. The calls were made as follows: active = growth percent below 10; inactive = the rest.
Possible outcomes: active, inactive

[[record]]
compound = "Fc1cc2[nH]ncc2c2c3c(c(-c4cn[nH]c4C(F)(F)F)nc12)C1CCC3C1 (stereo not given)"
category = "active"

[[record]]
compound = "COc1cc(NN=C(c2ccc(O)cc2)c2ccc(O)cc2)c([N+](=O)[O-])cc1[N+](=O)[O-]"
category = "inactive"

[[record]]
compound = "O=C(N/N=C\\c1cc(Cl)ccc1O)N/N=C/c1cc(Cl)ccc1O"
category = "inactive"

[[record]]
compound = "O=C(O)CSCc1nnc2n(Cc3ccccc3)c(=O)c3c4c(sc3n12)CCCC4"
category = "inactive"

[[record]]
compound = "COc1cc(C)cc2oc3oc(=N)c(C(=O)c4ccccc4)cc3c(=O)c12"
category = "inactive"

[[record]]
compound = "CC1(C)CC[C@]23CC[C@]4(C)[C@H](CC[C@@H]5[C@@]6(C)C/C(=C/c7ccncc7)C(=O)C(C)(C)[C@@H]6CC[C@]54C)[C@H]2[C@H]1OC3=O"
category = "inactive"

[[record]]
compound = "COc1cc2c(c(OC)c1OC)-c1cc(I)c(O)cc1[C@@H](NC(C)=O)CC2"
category = "inactive"

[[record]]
compound = "CCOc1ccc2sc(NS(=O)(=O)c3ccc(N)cc3)nc2c1"
category = "inactive"

[[record]]
compound = "O=C(O)c1cccc(CN2CCN(c3cc4c(cc3F)c(=O)c(C(=O)O)cn4C3CC3)CC2)c1O"
category = "inactive"

[[record]]
compound = "Cc1ccc(-c2cc(-c3ccc(C)cc3)nc(N3CCN(CCNc4ccnc5cc(Cl)ccc45)CC3)n2)cc1"
category = "inactive"

[[record]]
compound = "C#C[C@]1(O)CC[C@H]2[C@@H]3CC=C4c5nc(Nc6ccccc6[N+](=O)[O-])sc5CC[C@]4(C)[C@H]3CC[C@@]21C"
category = "active"

[[record]]
compound = "COc1ccc(C(C(=O)O)c2ccc(OC)cc2)cc1"
category = "inactive"

[[record]]
compound = "CCOc1ccccc1/C=N\\Nc1ccc(S(=O)(=O)c2ccc(N/N=C/c3ccccc3OCC)cc2)cc1"
category = "inactive"

[[record]]
compound = "Fc1cc2[nH]ncc2c2c3c(c(-c4cn[nH]c4)nc12)CCCC3"
category = "active"

[[record]]
compound = "Cn1ncc2c(Nc3ccc(O)cc3)nc(Cl)nc21"
category = "inactive"

[[record]]
compound = "CCCCCC1CCCCN1C(=O)OCCCC (stereo not given)"
category = "inactive"

[[record]]
compound = "C=C(CC(=O)OC)C(C)=O"
category = "inactive"

[[record]]
compound = "Cc1ccc(-n2nc3n(/c2=N\\C(=O)NS(=O)(=O)c2ccc(C)cc2)CCN3C2=NCCN2)cc1"
category = "inactive"

[[record]]
compound = "CC1=CCc2ccccc21"
category = "inactive"

[[record]]
compound = "O=C1Nc2ccccc2/C1=C/C(=O)c1ccc(N2CCOCC2)cc1"
category = "inactive"


====

Tested on: HT29 colon
METHOD: NCI-60 one-dose screen, 48 h (100 = growth as untreated, 0 = no growth, -100 = all killed)
EXPERIMENTAL CONTEXT: 10 µM unless noted
Compounds without any hit were thinned out: in the full panel of roughly 83,000, 20% have a hit.
QUANTITY MEASURED: growth (%)

[[record]]
compound = "N#Cc1c(Cl)nc(SCC2CO2)nc1-c1ccccc1 (configuration not stated)"
assayed_target = "HT29 colon"
quantity_measured = "growth"
units_symbol = "%"
reported_value = 111

[[record]]
compound = "CSc1nc2sc3cc(Cl)c(Cl)cc3n2c(=N)c1C#N"
assayed_target = "HT29 colon"
quantity_measured = "growth"
units_symbol = "%"
reported_value = 94.6

[[record]]
compound = "CCN1c2ccccc2C(Cl)(c2ccc(N(C)C)cc2)c2ccccc21"
assayed_target = "HT29 colon"
quantity_measured = "growth"
units_symbol = "%"
reported_value = 3.81

[[record]]
compound = "CCNc1cc2c(cc1Br)-c1ccccc1C2=O"
assayed_target = "HT29 colon"
quantity_measured = "growth"
units_symbol = "%"
reported_value = 97.4

[[record]]
compound = "Nc1nc(Nc2ccccc2)c2ncn(Cc3cc4c(cc3Br)OCO4)c2n1"
assayed_target = "HT29 colon"
quantity_measured = "growth"
units_symbol = "%"
reported_value = -34

[[record]]
compound = "CC(C)(C)c1cc(C(=O)Nc2ccccc2C(=O)NCCN)cc(C(C)(C)C)c1"
assayed_target = "HT29 colon"
quantity_measured = "growth"
units_symbol = "%"
reported_value = -41.3

[[record]]
compound = "CN(C)c1cc(NN=C(c2ccc(O)cc2)c2ccc(O)cc2)c([N+](=O)[O-])cc1[N+](=O)[O-]"
assayed_target = "HT29 colon"
quantity_measured = "growth"
units_symbol = "%"
reported_value = 114


====

System: SK-MEL-28 melanoma
METHOD: NCI-60 one-dose screen, 48 h (100 = growth as untreated, 0 = no growth, -100 = all killed)
EXPERIMENTAL CONTEXT: 10 µM unless noted
The panel holds about 83,000 compounds, 20% with a hit somewhere; the sample as a whole holds those more often.
# growth annotations
QUANTITY MEASURED: growth (%)

[[record]]
compound = "CCOc1cc(/C=N\\NC(=O)N/N=C/c2ccc(O)c(OCC)c2)ccc1O"
quantity_measured = "growth"
reported_value = 52.3

[[record]]
compound = "Cc1cc(C)c(-c2cc(O)c(-c3c(C)cc(C)cc3C)cc2O)c(C)c1"
quantity_measured = "growth"
reported_value = 42.8

[[record]]
compound = "O=C(CCCSc1nc(-c2ccccc2)cc(-c2ccccc2)n1)NO"
quantity_measured = "growth"
reported_value = 26

[[record]]
compound = "N#Cc1c(Cl)nc(SCC2CO2)nc1-c1ccccc1 (centres undefined)"
quantity_measured = "growth"
reported_value = 114

[[record]]
compound = "COC(=O)c1cc(O)c2c(c1C(=O)OC)C[C@H]1[C@@H]3CC=C4C[C@@H](O)CC[C@]4(C)[C@H]3CC[C@]21C"
quantity_measured = "growth"
reported_value = 46.3

[[record]]
compound = "O=C(Nc1cccc2cccnc12)c1cc(C(=O)c2ccc(Cl)cc2)n2ccc(-c3ccncc3)cc12"
quantity_measured = "growth"
reported_value = 98.2

[[record]]
compound = "CCN(CC)CCCC(C)Nc1c2ccc(C)cc2nc2ccc(OC)cc12 (centres undefined)"
quantity_measured = "growth"
reported_value = 62.1

[[record]]
compound = "O=C(O)c1cn(C2CC2)c2cc(N3CCN(Cc4cc(Cl)ccc4O)CC3)c(F)cc2c1=O"
quantity_measured = "growth"
reported_value = 71.7

[[record]]
compound = "O=C1C(Cl)=C(Nc2ccc3cn[nH]c3c2)C(=O)c2ccccc21"
quantity_measured = "growth"
reported_value = -97.7


====

Test system: ACHN renal
METHOD: NCI-60 one-dose screen, 48 h
EXPERIMENTAL CONTEXT: 10 µM unless noted
The panel holds about 83,000 compounds, 20% with a hit somewhere; the sample as a whole holds those more often. Activity calls are given as the source filed them. The calls were made as follows: active = growth percent below 10; inactive = the rest.
Outcomes: active, inactive

[[record]]
compound = "COc1cc(OC)cc(C(=O)Nc2cc(-c3cccnc3)nc(NCCCN3CCOCC3)n2)c1"
assayed_target = "ACHN renal"
category = "inactive"

[[record]]
compound = "C=C(C)[C@@H]1CC[C@]2(C(=O)O)CC[C@]3(C)[C@H](CC[C@@H]4[C@@]5(C)C/C(=C/c6ccco6)C(=O)C(C)(C)[C@@H]5CC[C@]43C)[C@@H]12"
assayed_target = "ACHN renal"
category = "active"

[[record]]
compound = "Cc1ccc(N)c(O)c1"
assayed_target = "ACHN renal"
category = "inactive"

[[record]]
compound = "CCOC(=O)COc1ccc2c(c1)O/C(=C\\c1ccc(O)cc1)C2=O"
assayed_target = "ACHN renal"
category = "inactive"

[[record]]
compound = "O=C(O)c1cn(C2CC2)c2cc(N3CCN(Cc4c(O)ccc5ccccc45)CC3)c(F)cc2c1=O"
assayed_target = "ACHN renal"
category = "inactive"

[[record]]
compound = "CC(C)(C)c1cc(C(=O)Nc2ccccc2C(=O)NCCN)cc(C(C)(C)C)c1"
assayed_target = "ACHN renal"
category = "active"

[[record]]
compound = "Cc1ccccc1-n1nnc(C(=O)Nc2nc3ccc(F)cc3s2)c1C"
assayed_target = "ACHN renal"
category = "inactive"

[[record]]
compound = "O=C(Nc1cccc(F)c1)c1cc(=O)[nH]c2cc(Br)ccc12"
assayed_target = "ACHN renal"
category = "inactive"

[[record]]
compound = "COC(=O)c1cc(O)c2c(c1C(=O)OC)C[C@H]1[C@@H]3CC=C4C[C@@H](O)CC[C@]4(C)[C@H]3CC[C@]21C"
assayed_target = "ACHN renal"
category = "inactive"

[[record]]
compound = "CCN(CCO)CCC(=O)c1ccc([N+](=O)[O-])cc1"
assayed_target = "ACHN renal"
category = "inactive"

[[record]]
compound = "Cc1ccc(-c2cc(-c3ccc(C)cc3)nc(NCCNc3ccnc4cc(Cl)ccc34)n2)cc1"
assayed_target = "ACHN renal"
category = "active"

[[record]]
compound = "C=C(C)[C@@H]1CC[C@]2(COC(=O)c3ccccc3C(=O)O)CC[C@]3(C)[C@H](CC[C@@H]4[C@@]5(C)CC[C@H](OC(=O)c6ccccc6C(=O)O)C(C)(C)[C@@H]5CC[C@]43C)[C@@H]12"
assayed_target = "ACHN renal"
category = "active"

[[record]]
compound = "CNC(=O)c1cc(Oc2cccc3nc(NC(=O)Nc4cc(C(F)(F)F)cc(C(F)(F)F)c4)ccc23)ccn1"
assayed_target = "ACHN renal"
category = "active"

[[record]]
compound = "Cc1cc(NN=C(c2ccc(O)cc2)c2ccc(O)cc2)c([N+](=O)[O-])cc1[N+](=O)[O-]"
assayed_target = "ACHN renal"
category = "inactive"

[[record]]
compound = "OC(c1ccc(Cl)cc1)(c1ccc(Cl)cc1)C(O)(c1ccc(Cl)cc1)c1ccc(Cl)cc1"
assayed_target = "ACHN renal"
category = "inactive"

[[record]]
compound = "O=C(O)c1ccccc1C(F)(F)F"
assayed_target = "ACHN renal"
category = "inactive"

[[record]]
compound = "CCCCCCNC(=O)Nc1ncnc2c1ncn2-c1ccccc1"
assayed_target = "ACHN renal"
category = "inactive"

[[record]]
compound = "CCN(CC)CCCC(C)Nc1c2ccc(C)cc2nc2ccc(OC)cc12 (stereo unspecified)"
assayed_target = "ACHN renal"
category = "inactive"

[[record]]
compound = "C=C(C)[C@@H]1CC[C@]2(C(=O)NCCNCCNC(=O)OC(C)(C)C)CC[C@]3(C)[C@H](CC[C@@H]4[C@@]5(C)CCC(=O)C(C)(C)[C@@H]5CC[C@]43C)[C@@H]12"
assayed_target = "ACHN renal"
category = "inactive"

[[record]]
compound = "N=C(N)c1ccc(-c2ccc(-c3ccc(-c4cccs4)s3)s2)cc1F"
assayed_target = "ACHN renal"
category = "inactive"

[[record]]
compound = "COc1ccc(-c2ccc(NNC(=O)c3ccc(F)cc3)nn2)cc1OC"
assayed_target = "ACHN renal"
category = "inactive"

[[record]]
compound = "CCN(CCNc1ccc(C)c2sc3cc(Cl)ccc3c(=O)c12)CC(C)O (stereo unspecified)"
assayed_target = "ACHN renal"
category = "inactive"

[[record]]
compound = "O=S(=O)(NCCNc1nccc(-c2c(-c3cccc(F)c3)nc3occn23)n1)c1ccc(C(F)(F)F)cc1"
assayed_target = "ACHN renal"
category = "inactive"

[[record]]
compound = "CCOc1ccc2sc(NS(=O)(=O)c3ccc(N)cc3)nc2c1"
assayed_target = "ACHN renal"
category = "inactive"

[[record]]
compound = "CCn1cc(-c2ccnc(NCCNS(=O)(=O)c3cccc4ccccc34)c2)c(-c2cccc(O)c2)n1"
assayed_target = "ACHN renal"
category = "inactive"

[[record]]
compound = "CCc1ccc(NC(=O)N[C@@H](Cc2cc(F)cc(F)c2)C(=O)N[C@@H]2C(=O)N3C[C@H](O)C[C@H]3C(=O)N3CCOC[C@H]3C(=O)N[C@@H](C)C(=O)N3C[C@H](C)C[C@H]3C(=O)O[C@H]2C)cc1"
assayed_target = "ACHN renal"
category = "inactive"

